# Test system: CCRF-CEM
# Protocol Details: Inhibitory activity against T4-lymphocytes (CEM cell line) infected with HIV-1; moderate
# Assay type: functional, cell-based
# Test Parameters: Homo sapiens
Measured Parameter: Activity

Entry Smiles: Cn1cc(NC(=O)c2cc(NC(=O)[C@H]3C[C@H]3C(=O)Nc3cc(C(=O)Nc4cc(C(=O)NCCC(=N)N)n(C)c4)n(C)c3)cn2C)cc1C(=O)NCCC(=N)N
Experimental Target: CCRF-CEM
Observed Measurement: Moderate

Entry Smiles: Cn1cc(NC(=O)c2cc(NC(=O)[C@H]3CCC[C@@H]3C(=O)Nc3cc(C(=O)Nc4cc(C(=O)NCCC(=N)N)n(C)c4)n(C)c3)cn2C)cc1C(=O)NCCC(=N)N
Experimental Target: CCRF-CEM
Observed Measurement: Moderate

Entry Smiles: Cn1cc(NC(=O)c2cc(NC(=O)Nc3cc(C(=O)Nc4cc(C(=O)NCCC(=N)N)n(C)c4)n(C)c3)cn2C)cc1C(=O)NCCC(=N)N
Experimental Target: CCRF-CEM
Observed Measurement: Moderate

====

# Tested on: Human immunodeficiency virus 1
# Protocol Details: Inhibitory activity against HIV-1 in T4-lymphocytes (CEM cell line).
# Format: functional, organism-based
# Test Parameters: Human immunodeficiency virus 1, CCRF-CEM
pEC50: −log10 of the molar value.

Entry Smiles: Cn1cc(NC(=O)c2cc(NC(=O)/C=C/C(=O)Nc3cc(C(=O)Nc4cc(C(=O)NCCC(=N)N)n(C)c4)n(C)c3)cn2C)cc1C(=O)NCCC(=N)N
Experimental Target: Human immunodeficiency virus 1
pEC50: 5.86
--
Entry Smiles: Cn1cc(NC(=O)c2cc(NC(=O)c3ccc(C(=O)Nc4cc(C(=O)Nc5cc(C(=O)NCCC(=N)N)n(C)c5)n(C)c4)cc3)cn2C)cc1C(=O)NCCC(=N)N
Experimental Target: Human immunodeficiency virus 1
pEC50: 5.92
--
Entry Smiles: Cn1cc(NC(=O)c2cc(NC(=O)[C@H]3C[C@@H]3C(=O)Nc3cc(C(=O)Nc4cc(C(=O)NCCC(=N)N)n(C)c4)n(C)c3)cn2C)cc1C(=O)NCCC(=N)N
Experimental Target: Human immunodeficiency virus 1
pEC50: 5.46
--
Entry Smiles: Cn1cc(NC(=O)c2cc(NC(=O)c3cccc(C(=O)Nc4cc(C(=O)Nc5cc(C(=O)NCCC(=N)N)n(C)c5)n(C)c4)c3)cn2C)cc1C(=O)NCCC(=N)N
Experimental Target: Human immunodeficiency virus 1
pEC50: 5.45
--
Entry Smiles: Cn1cc(NC(=O)c2cc(NC(=O)[C@@H]3CCC(N)=N3)c[nH]2)cc1C(=O)NCCC(=N)N
Experimental Target: Human immunodeficiency virus 1
pEC50: 4.06
--
Entry Smiles: Cn1cc(NC(=O)c2cc(NC(=O)Nc3cc(C(=O)Nc4cc(C(=O)NCCC(=N)N)n(C)c4)n(C)c3)cn2C)cc1C(=O)NCCC(=N)N
Experimental Target: Human immunodeficiency virus 1
pEC50: 4.92

====

Measured selectivity ratio, listed per entry for reference.
# System: HIV-1
# Protocol Details: Therapeutic index (TI) was measured as ratio of IC50 and EC50 (HIV-1)
# Test Parameters: human immunodeficiency virus 1; read-out: TI50

Entry Smiles: Cn1cc(NC(=O)c2cc(NC(=O)[C@H]3CCC(N)=N3)c[nH]2)cc1C(=O)NCCC(=N)N
selectivity ratio: 8.2

Entry Smiles: Cn1cc(NC(=O)c2cc(NC(=O)CCCCCCCCCC(=O)Nc3cc(C(=O)Nc4cc(C(=O)NCCC(=N)N)n(C)c4)n(C)c3)cn2C)cc1C(=O)NCCC(=N)N
selectivity ratio: 14.6

Entry Smiles: Cn1cc(NC(=O)c2cc(NC(=O)c3ccc(C(=O)Nc4cc(C(=O)Nc5cc(C(=O)NCCC(=N)N)n(C)c5)n(C)c4)cc3)cn2C)cc1C(=O)NCCC(=N)N
selectivity ratio: 14.8

Entry Smiles: Cn1cc(NC(=O)c2cc(NC(=O)[C@@H]3CCC(N)=N3)c[nH]2)cc1C(=O)NCCC(=N)N
selectivity ratio: 8.5

====

Measured TI, listed per entry for reference.
# Protocol Details: Therapeutic index(TI) was measured as ratio of TD50 and MIC50 (Retrovirus)
# Test Parameters: retroviridae
Measured Parameter: TI

Compound: Cl.Cl.Cn1cc(NC(=O)c2cc(NC(=O)c3cc(NC(=O)c4cccc(C(=O)Nc5cc(C(=O)Nc6cc(C(=O)Nc7cc(C(=O)NCCC(=N)N)n(C)c7)n(C)c6)n(C)c5)n4)cn3C)cn2C)cc1C(=O)NCCC(=N)N
Observed Measurement: > 4.4 TD50/MIC50
//
Compound: Cl.Cl.Cl.Cn1cc(NC(=O)c2cc(NC(=O)c3cc(NC(=O)c4cc(C(=O)Nc5cc(C(=O)Nc6cc(C(=O)Nc7cc(C(=O)NCCC(=N)N)n(C)c7)n(C)c6)n(C)c5)cc(C(=O)Nc5cc(C(=O)Nc6cc(C(=O)Nc7cc(C(=O)NCCC(=N)N)n(C)c7)n(C)c6)n(C)c5)c4)cn3C)cn2C)cc1C(=O)NCCC(=N)N
Observed Measurement: > 1.6 TD50/MIC50
//
Compound: Nc1ccn([C@H]2CC[C@@H](CO)O2)c(=O)n1 [ZALCITABINE]
Observed Measurement: > 135.14 TD50/MIC50
//
Compound: Cl.Cl.Cn1cc(NC(=O)c2cc(NC(=O)c3cc(NC(=O)c4ccccc4C(=O)Nc4cc(C(=O)Nc5cc(C(=O)Nc6cc(C(=O)NCCC(=N)N)n(C)c6)n(C)c5)n(C)c4)cn3C)cn2C)cc1C(=O)NCCC(=N)N
Observed Measurement: > 1.26 TD50/MIC50
//
Compound: Cc1cn([C@H]2C[C@H](N=[N+]=[N-])[C@@H](CO)O2)c(=O)[nH]c1=O [ZIDOVUDINE]
Observed Measurement: > 714000 TD50/MIC50
//
Compound: Cl.Cl.Cn1cc(NC(=O)c2cc(NC(=O)c3cc(NC(=O)/C=C/C(=O)Nc4cc(C(=O)Nc5cc(C(=O)Nc6cc(C(=O)NCCC(=N)N)n(C)c6)n(C)c5)n(C)c4)cn3C)cn2C)cc1C(=O)NCCC(=N)N
Observed Measurement: 625 TD50/MIC50
//
Compound: Cl.Cl.Cn1cc(NC(=O)c2cc(NC(=O)c3cc(NC(=O)c4cccc(C(=O)Nc5cc(C(=O)Nc6cc(C(=O)Nc7cc(C(=O)NCCC(=N)N)n(C)c7)n(C)c6)n(C)c5)c4)cn3C)cn2C)cc1C(=O)NCCC(=N)N
Observed Measurement: 2 TD50/MIC50
//
Compound: Cl.Cl.Cn1cc(NC(=O)c2cc(NC(=O)c3cc(NC(=O)C4CCC4C(=O)Nc4cc(C(=O)Nc5cc(C(=O)Nc6cc(C(=O)NCCC(=N)N)n(C)c6)n(C)c5)n(C)c4)cn3C)cn2C)cc1C(=O)NCCC(=N)N (configuration not stated)
Observed Measurement: 1.7 TD50/MIC50
//
Compound: Cl.Cl.Cn1cc(NC(=O)c2cc(NC(=O)c3cc(NC(=O)[C@@H]4C5C=CC(C5)[C@H]4C(=O)Nc4cc(C(=O)Nc5cc(C(=O)Nc6cc(C(=O)NCCC(=N)N)n(C)c6)n(C)c5)n(C)c4)cn3C)cn2C)cc1C(=O)NCCC(=N)N
Observed Measurement: > 4.54 TD50/MIC50
//
Compound: Cl.Cl.Cn1cc(NC(=O)c2cc(NC(=O)c3cc(NC(=O)c4ccc(C(=O)Nc5cc(C(=O)Nc6cc(C(=O)Nc7cc(C(=O)NCCC(=N)N)n(C)c7)n(C)c6)n(C)c5)nc4)cn3C)cn2C)cc1C(=O)NCCC(=N)N
Observed Measurement: > 6.28 TD50/MIC50
//
Compound: Cl.Cl.Cn1cc(NC(=O)c2cc(NC(=O)c3cc(NC(=O)c4ccc(C(=O)Nc5cc(C(=O)Nc6cc(C(=O)Nc7cc(C(=O)NCCC(=N)N)n(C)c7)n(C)c6)n(C)c5)cc4)cn3C)cn2C)cc1C(=O)NCCC(=N)N
Observed Measurement: > 25.13 TD50/MIC50
//
Compound: Cl.Cl.Cn1cc(NC(=O)c2cc(NC(=O)c3cc(NC(=O)/C=C\C(=O)Nc4cc(C(=O)Nc5cc(C(=O)Nc6cc(C(=O)NCCC(=N)N)n(C)c6)n(C)c5)n(C)c4)cn3C)cn2C)cc1C(=O)NCCC(=N)N
Observed Measurement: 7.52 TD50/MIC50

====

# System: Human immunodeficiency virus 1
# Protocol Details: Inhibitory activity against HIV-1 in T4-lymphocytes (CEM cell line).
# Type: functional, organism-based
# Test Parameters: Human immunodeficiency virus 1, CCRF-CEM
Measured EC50, listed per entry for reference.
Measured Parameter: EC50 (µM)

Entry Smiles: Cn1cc(NC(=O)c2cc(NC(=O)CCCCCCCCCCC(=O)Nc3cc(C(=O)Nc4cc(C(=O)NCCC(=N)N)n(C)c4)n(C)c3)cn2C)cc1C(=O)NCCC(=N)N
Observed Measurement: 6.6
--
Entry Smiles: Cn1cc(NC(=O)c2cc(NC(=O)[C@H]3CCC(N)=N3)c[nH]2)cc1C(=O)NCCC(=N)N
Observed Measurement: 91
--
Entry Smiles: Cn1cc(NC(=O)c2cc(NC(=O)CCCCCCCCCC(=O)Nc3cc(C(=O)Nc4cc(C(=O)NCCC(=N)N)n(C)c4)n(C)c3)cn2C)cc1C(=O)NCCC(=N)N
Observed Measurement: 3.9
--
Entry Smiles: Cn1cc(NC(=O)c2cc(NC(=O)[C@@H]3CCCC[C@H]3C(=O)Nc3cc(C(=O)Nc4cc(C(=O)NCCC(=N)N)n(C)c4)n(C)c3)cn2C)cc1C(=O)NCCC(=N)N
Observed Measurement: 5.6
--
Entry Smiles: Cn1cc(NC(=O)c2cc(NC(=O)[C@H]3C[C@H]3C(=O)Nc3cc(C(=O)Nc4cc(C(=O)NCCC(=N)N)n(C)c4)n(C)c3)cn2C)cc1C(=O)NCCC(=N)N
Observed Measurement: 42.5
--
Entry Smiles: Cn1cc(NC(=O)c2cc(NC(=O)/C=C\C(=O)Nc3cc(C(=O)Nc4cc(C(=O)NCCC(=N)N)n(C)c4)n(C)c3)cn2C)cc1C(=O)NCCC(=N)N
Observed Measurement: 0.35
--
Entry Smiles: Cn1cc(NC(=O)c2cc(NC(=O)[C@H]3CCC[C@@H]3C(=O)Nc3cc(C(=O)Nc4cc(C(=O)NCCC(=N)N)n(C)c4)n(C)c3)cn2C)cc1C(=O)NCCC(=N)N
Observed Measurement: 46.3
--
Entry Smiles: Cn1cc(NC(=O)c2cc(NC(=O)[C@H]3CC[C@@H]3C(=O)Nc3cc(C(=O)Nc4cc(C(=O)NCCC(=N)N)n(C)c4)n(C)c3)cn2C)cc1C(=O)NCCC(=N)N
Observed Measurement: 0.42
